Please go through the items and note down their Emax.
Test system: ALP in NHAC (normal human articular chondrocytes)
Assay: Alkaline Phosphatase (ALP) activity assay: ALP staining and quantitation in NHACs (prevention of chondrocyte hypertrophy)
Format: cell-based
Settings: Chondrocyte, 288 h, human IL-1 beta 10 ng/mL, 12 days, read-out: ALP in NHAC (% Efficacy)

Return reported Emax; argument: COc1cc([C@@]23C[C@]2(C(=O)Nc2cc(C#N)cc(C(F)(F)F)c2)[C@H]2C[C@H](O)[C@@H]3O2)ccn1 (racemic)
37%

How about this compound: O=C(Nc1cc(C(F)(F)F)cc(C2CC2)n1)[C@]12C[C@@]1(c1ccnc(F)c1)[C@H]1O[C@@H]2C[C@@H]1O (racemic)
9%

What would you report for Cc1cc(C(F)(F)F)cc(NC(=O)[C@]23C[C@@]2(c2cn(C)nc2C(F)(F)F)[C@H]2O[C@@H]3C[C@@H]2O)n1 (racemic) ?
36%

Query Cn1cc([C@@]23C[C@]2(C(=O)Nc2cc(C(F)(F)F)ccc2F)[C@H]2C[C@H](O)[C@@H]3O2)c(C(F)(F)F)n1 (racemic) next
24%

Quick one: COc1cc([C@@]23C[C@]2(C(=O)Nc2ccc(C#N)c(C(F)(F)F)c2)[C@H]2C[C@H](O)[C@@H]3O2)ccn1 (racemic)
71%

Proceed to Cn1cc([C@@]23C[C@]2(C(=O)Nc2cc(C(F)(F)F)ccn2)[C@H]2C[C@H](O)[C@@H]3O2)c(C(F)(F)F)n1 (racemic)
49%

###

System: ALP in NHAC (normal human articular chondrocytes)
Test: Alkaline Phosphatase (ALP) activity assay: ALP staining and quantitation in NHACs (prevention of chondrocyte hypertrophy)
Assay type: cell-based
Conditions: Chondrocyte, 288 h, human IL-1 beta 10 ng/mL, 12 days, read-out: ALP in NHAC (% Efficacy)
Labelling: Emax reported below 10% becomes T; at or above becomes F.

Does COc1cc([C@@]23C[C@]2(C(=O)Nc2ccc(F)c(C(F)(F)F)c2)[C@H]2C[C@H](O)[C@@H]3O2)ccn1 (racemic) [Example 32] have Emax strictly under 10%?
T

Next up: COc1cc(NC(=O)[C@]23C[C@@]2(c2ccnc(OC)c2)[C@H]2O[C@@H]3C[C@@H]2O)cc(C(F)(F)F)c1 (racemic) [Example 35]
T

And the next one, Cc1ccc(C(F)(F)F)cc1NC(=O)[C@]12C[C@@]1(c1ccnc(F)c1)[C@H]1O[C@@H]2C[C@@H]1O (racemic) [Example 13] ?
F

Could you do the same for COc1cc([C@@]23C[C@]2(C(=O)Nc2cccc(C(F)(F)F)c2)[C@H]2C[C@H](O)[C@@H]3O2)ccn1 (racemic) [Example 26] , please?
T

Consider next the compound COc1cc([C@@]23C[C@]2(C(=O)Nc2cc(F)cc(C(F)(F)F)c2)[C@H]2C[C@H](O)[C@@H]3O2)ccn1 (racemic) [Example 73] in the same way.
F

Likewise for Cc1c(NC(=O)[C@]23C[C@@]2(c2cn(C)nc2C(F)(F)F)[C@H]2O[C@@H]3C[C@@H]2O)cccc1C(F)(F)F (racemic) [Example 50] ?
F

COc1cc([C@@]23C[C@]2(C(=O)Nc2cc(C(F)(F)F)cc(C(F)(F)F)c2)[C@H]2C[C@H](O)[C@@H]3O2)ccn1 (racemic) [Example 37] ?
T

// repeat for Cc1cc(NC(=O)[C@]23C[C@@]2(c2cn(C)nc2C(F)(F)F)[C@H]2O[C@@H]3C[C@@H]2O)cc(C(F)(F)F)c1 (racemic) [Example 52] and report
F

Same lookup for N#Cc1ccc(NC(=O)[C@]23C[C@@]2(c2cccc(C(F)(F)F)c2)[C@H]2O[C@@H]3C[C@@H]2O)cc1C(F)(F)F (racemic) [Example 79] , please.
F

Also COc1cc([C@@]23C[C@]2(C(=O)Nc2cc(C(F)(F)F)ccc2C)[C@H]2C[C@H](O)[C@@H]3O2)ccn1 (racemic) [Example 30] , if possible.
F

Try the compound Cn1cc([C@@]23C[C@]2(C(=O)Nc2cc(C(F)(F)F)c(Cl)cn2)[C@H]2C[C@H](O)[C@@H]3O2)c(C(F)(F)F)n1 (racemic) [Example 45]
F

Query COc1cc([C@@]23C[C@]2(C(=O)Nc2cc(C(F)(F)F)c(Cl)cn2)[C@H]2C[C@H](O)[C@@H]3O2)ccn1 (racemic) [Example 22] next
F

What do we get for O=C(Nc1ccc(C(F)(F)F)c(Cl)c1)[C@]12C[C@@]1(c1ccnc(F)c1)[C@H]1O[C@@H]2C[C@@H]1O (racemic) [Example 3] ?
F

// next record O=C(Nc1cc(F)cc(C(F)(F)F)c1)[C@]12C[C@@]1(c1ccnc(F)c1)[C@H]1O[C@@H]2C[C@@H]1O (racemic) [Example 16]
F

Would you kindly repeat that for O=C(Nc1cccc(C(F)(F)F)c1)[C@]12C[C@@]1(c1ccnc(C(F)(F)F)c1)[C@H]1O[C@@H]2C[C@@H]1O (racemic) [Example 66] ?
F

Let us now turn to O=C(Nc1cc(C(F)(F)F)ccc1F)[C@]12C[C@@]1(c1ccnc(F)c1)[C@H]1O[C@@H]2C[C@@H]1O (racemic) [Example 17]
F

Same question, COc1cc([C@@]23C[C@]2(C(=O)Nc2cccc(C(F)(F)F)c2C)[C@H]2C[C@H](O)[C@@H]3O2)ccn1 (racemic) [Example 27] this time
T

Here is the next compound: COc1cc([C@@]23C[C@]2(C(=O)Nc2ccc(OC)c(C(F)(F)F)c2)[C@H]2C[C@H](O)[C@@H]3O2)ccn1 (racemic) [Example 34]
T

Also need Cn1cc([C@@]23C[C@]2(C(=O)Nc2cc(C(F)(F)F)cc(C4CC4)n2)[C@H]2C[C@H](O)[C@@H]3O2)c(C(F)(F)F)n1 (racemic) [Example 46] , thanks.
F

Similarly, O=C(Nc1ccc(F)c(C(F)(F)F)c1)[C@]12C[C@@]1(c1ccnc(F)c1)[C@H]1O[C@@H]2C[C@@H]1O (racemic) [Example 15] ?
T

Field entry: COc1cc([C@@]23C[C@]2(C(=O)Nc2ccc(C)c(C(F)(F)F)c2)[C@H]2C[C@H](O)[C@@H]3O2)ccn1 (racemic) [Example 28]
F

Repeat with COc1cc(NC(=O)[C@]23C[C@@]2(c2cn(C)nc2C(F)(F)F)[C@H]2O[C@@H]3C[C@@H]2O)cc(C(F)(F)F)c1 (racemic) [Example 61]
F

Request: COc1cc([C@@]23C[C@]2(C(=O)Nc2ccc(Cl)c(C(F)(F)F)c2)[C@H]2C[C@H](O)[C@@H]3O2)ccn1 (racemic) [Example 70]
F

Repeat with COc1cc([C@@]23C[C@]2(C(=O)Nc2cc(C(F)(F)F)cc(C)n2)[C@H]2C[C@H](O)[C@@H]3O2)ccn1 (racemic) [Example 24]
F

These measurements were taken from patent US12365692B2.
